Reported polymerase ribozyme fitness (log ratio) values follow for various variants
B1: TPR 5TU (parent)
chain: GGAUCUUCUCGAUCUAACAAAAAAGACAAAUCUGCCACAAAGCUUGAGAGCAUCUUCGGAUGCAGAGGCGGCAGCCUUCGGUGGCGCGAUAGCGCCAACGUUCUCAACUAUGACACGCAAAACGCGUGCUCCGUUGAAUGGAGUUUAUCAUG

# Variants of: B1
# protocol-details: polymerase ribozyme fitness, log enrichment relative to wild type (log ratio); higher = more active; in vitro selection for triplet polymerase activity
Fewer inactive variants are shown than the library holds.
attribute-measured: polymerase ribozyme fitness (log ratio)

[[record]]
mutation_id = "G50C C87U C103G A121G C123U C125G"
experimental_value = "≤ -4.2"

[[record]]
mutation_id = "G71A C85U C96A A107G C118A"
experimental_value = "≤ -4.2"

[[record]]
mutation_id = "C14U A26C G48C U53G C54A C93A U145A U148C"
experimental_value = "≤ -4.2"

[[record]]
mutation_id = "G42U G70C G83C G141C"
experimental_value = "≤ -4.2"

[[record]]
mutation_id = "U13A A19U A37C U45A A49C C51U C76U G94A G133U U134A G140U U148A"
experimental_value = "≤ -4.2"

[[record]]
mutation_id = "U44G G59A A60C G83A C95G C103G"
experimental_value = "≤ -4.2"

[[record]]
mutation_id = "C14U C27G A37U A39G A66C U77A U78G C85U A89U C95G"
experimental_value = "≤ -4.2"

[[record]]
mutation_id = "C35A G50U C69A G74A"
experimental_value = "≤ -4.2"

[[record]]
mutation_id = "A30C G48C G50U A98G A107G C118U A120C G141U"
experimental_value = "≤ -4.2"

[[record]]
mutation_id = "C54G U55G"
experimental_value = "≤ -4.2"

[[record]]
mutation_id = "C14G C18G U82G G84C"
experimental_value = "≤ -4.2"

[[record]]
mutation_id = "A20U A29U C43U A47G A49C C54G C95U C105A U145G A147G"
experimental_value = "≤ -4.2"

[[record]]
mutation_id = "C10A C14U C93G C149U"
experimental_value = "≤ -4.2"

[[record]]
mutation_id = "A22G A39G U61A G88C A121C U146G"
experimental_value = "≤ -4.2"

[[record]]
mutation_id = "A21G G42U C54A C72U C76U C79U G84U"
experimental_value = "≤ -4.2"

[[record]]
mutation_id = "C18A G141C"
experimental_value = -0.603

[[record]]
mutation_id = "C54G C87A"
experimental_value = "≤ -4.2"

[[record]]
mutation_id = "C18G A19U G42C G50C U90G G92U"
experimental_value = "≤ -4.2"

[[record]]
mutation_id = "C27U G94A"
experimental_value = -2.73

[[record]]
mutation_id = "U56A G94U C95A G143U"
experimental_value = -3.39

[[record]]
mutation_id = "A17U A22U U90G C125A U139C"
experimental_value = "≤ -4.2"

[[record]]
mutation_id = "C132U G152U"
experimental_value = -2.75

[[record]]
mutation_id = "A17U A30U G42A C95A A138G"
experimental_value = "≤ -4.2"

[[record]]
mutation_id = "U7G A30C C32G C51U U144A"
experimental_value = "≤ -4.2"

[[record]]
mutation_id = "U9G C18U U45G G48A C76U"
experimental_value = "≤ -4.2"

[[record]]
mutation_id = "C10G G94A"
experimental_value = -3.44

[[record]]
mutation_id = "A26U A41G G62U"
experimental_value = -1.6

[[record]]
mutation_id = "A52C A73G"
experimental_value = -1.89

[[record]]
mutation_id = "C35U G50U U56A G68A C85U A137C"
experimental_value = "≤ -4.2"

[[record]]
mutation_id = "C57U G58C A142C"
experimental_value = 0.768

[[record]]
mutation_id = "A26C C35U U44A C57U G58U C85A"
experimental_value = "≤ -4.2"

[[record]]
mutation_id = "A73G C87U"
experimental_value = -1.55

[[record]]
mutation_id = "C36A C87U G140C"
experimental_value = "≤ -4.2"

